target: Peroxisome proliferator-activated receptor gamma/Nuclear receptor coactivator 2 (Homo sapiens, UniProt P37231); assay type: functional;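 also: agonist potency for raising coactivator recruitment to the receptor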
Sequence (P37231 whole entry): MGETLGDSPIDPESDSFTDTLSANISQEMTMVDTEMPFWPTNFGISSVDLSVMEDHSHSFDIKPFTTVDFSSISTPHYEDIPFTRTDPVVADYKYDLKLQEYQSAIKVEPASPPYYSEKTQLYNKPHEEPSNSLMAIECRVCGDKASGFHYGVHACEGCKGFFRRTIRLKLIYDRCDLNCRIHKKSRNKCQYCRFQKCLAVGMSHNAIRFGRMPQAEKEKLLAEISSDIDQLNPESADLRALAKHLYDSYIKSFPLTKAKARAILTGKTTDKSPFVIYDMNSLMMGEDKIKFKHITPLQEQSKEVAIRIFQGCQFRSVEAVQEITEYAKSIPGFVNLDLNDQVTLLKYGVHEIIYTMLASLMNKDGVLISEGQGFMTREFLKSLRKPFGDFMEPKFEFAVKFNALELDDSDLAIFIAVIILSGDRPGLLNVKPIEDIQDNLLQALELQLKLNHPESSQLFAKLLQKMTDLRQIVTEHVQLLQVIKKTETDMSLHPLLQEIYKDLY
Sequence (Q15596 whole entry, further chain): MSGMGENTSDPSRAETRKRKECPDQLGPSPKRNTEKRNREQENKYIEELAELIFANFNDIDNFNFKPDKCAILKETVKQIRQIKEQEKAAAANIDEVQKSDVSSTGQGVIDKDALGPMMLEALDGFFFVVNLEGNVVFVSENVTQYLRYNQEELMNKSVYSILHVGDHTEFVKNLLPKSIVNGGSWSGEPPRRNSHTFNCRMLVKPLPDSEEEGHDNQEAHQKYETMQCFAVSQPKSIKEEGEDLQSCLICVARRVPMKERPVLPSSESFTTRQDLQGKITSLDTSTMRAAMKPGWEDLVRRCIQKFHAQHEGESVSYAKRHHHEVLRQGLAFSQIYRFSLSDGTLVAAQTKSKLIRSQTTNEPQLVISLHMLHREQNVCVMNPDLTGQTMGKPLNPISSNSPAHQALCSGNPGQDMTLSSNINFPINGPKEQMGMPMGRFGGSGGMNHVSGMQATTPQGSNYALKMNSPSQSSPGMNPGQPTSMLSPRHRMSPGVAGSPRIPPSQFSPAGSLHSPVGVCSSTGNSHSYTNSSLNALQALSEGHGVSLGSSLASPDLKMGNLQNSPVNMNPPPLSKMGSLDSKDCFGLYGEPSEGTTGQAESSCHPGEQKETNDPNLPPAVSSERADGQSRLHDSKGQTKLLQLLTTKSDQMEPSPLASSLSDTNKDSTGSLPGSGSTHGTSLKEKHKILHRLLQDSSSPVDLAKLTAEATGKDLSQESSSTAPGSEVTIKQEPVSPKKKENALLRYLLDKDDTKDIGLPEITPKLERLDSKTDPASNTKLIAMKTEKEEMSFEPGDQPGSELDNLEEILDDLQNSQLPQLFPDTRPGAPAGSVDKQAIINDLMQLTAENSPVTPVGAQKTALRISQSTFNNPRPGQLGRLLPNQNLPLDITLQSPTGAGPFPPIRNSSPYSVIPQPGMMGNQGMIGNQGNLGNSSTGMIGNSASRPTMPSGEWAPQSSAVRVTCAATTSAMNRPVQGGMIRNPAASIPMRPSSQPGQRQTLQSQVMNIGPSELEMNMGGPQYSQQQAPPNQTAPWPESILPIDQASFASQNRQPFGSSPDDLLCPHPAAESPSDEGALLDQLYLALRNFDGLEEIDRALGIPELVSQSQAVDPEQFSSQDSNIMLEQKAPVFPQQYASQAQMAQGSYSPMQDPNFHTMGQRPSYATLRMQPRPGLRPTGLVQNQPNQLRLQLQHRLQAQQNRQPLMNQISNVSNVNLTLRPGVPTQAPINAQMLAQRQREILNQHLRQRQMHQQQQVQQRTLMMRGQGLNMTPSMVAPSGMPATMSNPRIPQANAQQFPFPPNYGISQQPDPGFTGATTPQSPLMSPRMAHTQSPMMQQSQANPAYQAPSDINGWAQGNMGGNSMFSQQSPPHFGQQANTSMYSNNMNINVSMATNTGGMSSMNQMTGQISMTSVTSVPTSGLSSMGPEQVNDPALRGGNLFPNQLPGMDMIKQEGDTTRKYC
compounds and their reported EC50

Sample answers from the record:
[[record]]
structure_smiles = "C=CCn1c(Cc2cccs2)nnc1SCC(=O)c1ccc(F)cc1"
value_measured = "> 79.4 µM (not active)"

[[record]]
structure_smiles = "Cn1c(=O)c(C(=O)NC2CCCCCCC2)c(O)c2ccccc21"
value_measured = "69.1 µM (not active)"

[[record]]
structure_smiles = "Cc1ccc(C(=O)Nc2ccc(N3CCCC3)cc2)cc1"
value_measured = "> 79.4 µM (not active)"

[[record]]
structure_smiles = "O=c1c2ccccc2nc(-c2ccccc2)n1CCCN1CCOCC1"
value_measured = "> 79.4 µM (not active)"


// moving on: another record for EC50
Entry `CCN(CC)c1ccc(/C=N/c2cc(C)ccc2C)c(O)c1` has what EC50? > 79.4 µM (not active)
